- tested_on: T1, PHD1_(KDM5B) D328A mutant (UniProt Q9UGL1 306-360, D328A)
- T1 construct: also called PHD1 D328A; source: recombinant from modified pGEX-6p-1, site-directed mutagenesis; not shown: GST, N-terminal, cleaved
- T1 sequence (looked up): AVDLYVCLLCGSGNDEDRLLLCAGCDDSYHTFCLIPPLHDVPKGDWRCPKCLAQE
- assay_comment: ITC; ITC-200, 20 mmol/L Tris, 150 mmol/L NaCl, 1% Triton X-100, pH 7.5, 25°C
- condition_details: both partners purified
measurement_label: Kd (µM)

{"binder": "ARTKQTARKS (histone H3 N-terminal tail, residues 1-10; also called H3K4me0; H3K4me0 peptide; source: synthetic peptide, bought: GL Biochem Ltd. (Shanghai, China)) [unmodified H3K4 peptide (residues 1-10)]", "reported_value": 182}
